Give IRF reporter for every item shown.
- Tested on: RAW-Dual (murine macrophage reporter line)
- METHOD SUMMARY: IRF reporter (Lucia luciferase) activity fold change vs agonist alone; higher = enhanced IRF activity
- TEST CONTEXT: modulator concentration 10 µM; agonist: LPS 0.1 ug/mL
Write no unit; give the number alone.

### Prompt Entry "NCCCC[C@H](N[C@@H](CCc1ccccc1)C(=O)O)C(=O)N1CCC[C@H]1C(=O)O" has what IRF reporter?
### Response 0.999

### Prompt Next entry: "CCOc1ccccc1NC(=O)Nc1ccc2c(c1)CC(=O)N2CC"
### Response 0.844

### Prompt Next entry: "Cc1ccc2[nH]c3nc(NN)nnc3c2c1"
### Response 0.998

### Prompt Next entry: "CSc1nnc2c(n1)[nH]c1c(C)cccc12"
### Response 1.31

### Prompt Next entry: "Cl.Cl.NC1=NN(c2ccc(N)cc2)CC1"
### Response 1.34

### Prompt Next entry: "COc1cc2c(Nc3ccc(Br)cc3F)ncnc2cc1OCC1CCN(C)CC1"
### Response 1.11

### Prompt Next entry: "Fc1ccc(Nc2nc(NN=Cc3ccccc3F)nc(N3CCCCC3)n2)cc1"
### Response 1.26

### Prompt Next entry: "O=C(Nc1ccncc1)c1ccc(OCC2CCOCC2)nc1"
### Response 1.28

### Prompt Next entry: "CCN(CC)c1ccc(-c2noc(CN3CCSCC3)n2)cn1"
### Response 1.15

### Prompt Next entry: "CCCCNC(=O)Cc1ccc(Br)cc1"
### Response 1.29

### Prompt Next entry: "O=C(NN=Cc1c(O)ccc2ccccc12)c1ccccc1I"
### Response 1.47

### Prompt Next entry: "COc1ccc2nc(NCCCn3ccnc3)sc2c1"
### Response 1.15

### Prompt Next entry: "O=C(CCCN1CCC(O)(c2ccc(Br)cc2)CC1)c1ccc(F)cc1"
### Response 1.01

### Prompt Next entry: COc1ccc(C2Sc3ccccc3N(CCN(C)C)C(=O)C2OC(C)=O)cc1.Cl (configuration not stated)
### Response 1.15

### Prompt Next entry: "CCCCCCC=CCCCCCCCc1cccc(O)c1C(=O)O"
### Response 0.991

### Prompt Next entry: "CCc1ccc(OCCSc2nc3ccccc3n2CCO)cc1"
### Response 1.33

### Prompt Next entry: Nc1ncnc2c1ncn2C1OC(COP(=O)(O)O)C(O)C1O (configuration not stated)
### Response 1.19

====

- Tested on: RAW-Dual (murine macrophage reporter line)
- METHOD SUMMARY: NF-kB reporter (SEAP) activity fold change vs agonist alone; higher = enhanced NF-kB activity
- TEST CONTEXT: modulator concentration 10 µM; agonist: CpG ODN 1826 0.5 ug/mL
So basically, the class depends on measured NF-kB reporter, and the ranges are band 1: < 0.7; band 2: ≥ 0.7 and < 1; band 3: ≥ 1

### Prompt // return the class label for COC(=O)C1=COC(OC2OC(CO)C(O)C(O)C2O)C2C1CC(O)C2C (configuration not stated)
### Response band 3

### Prompt Next entry: COc1ccc(CNC2CCCc3ccccc32)c(OC)c1 (configuration not stated)
### Response band 1

### Prompt Next entry: "Nc1nc(N)c2nc(-c3ccccc3)c(N)nc2n1"
### Response band 2

### Prompt Next entry: O=C(Cc1ccc(F)cc1)NCC1CCCN1c1ccccc1 (configuration not stated)
### Response band 3

### Prompt Next entry: COC(=O)Nc1nc2ccc(S(=O)c3ccccc3)cc2[nH]1 (configuration not stated)
### Response band 3

### Prompt Next entry: CC(C)(C)C1(O)CC(C(F)(F)F)=NN1C(=O)c1ccc([N+](=O)[O-])cc1 (configuration not stated)
### Response band 1

### Prompt Next entry: "O=C(O)c1ccc2c(c1)nc(Nc1cccc(Cl)c1)c1ccncc12"
### Response band 3

### Prompt Next entry: "Cc1cccc(N2C(=O)C(=Cc3cccc([N+](=O)[O-])c3)SC2=S)c1C"
### Response band 2

### Prompt Next entry: "O=C(NCCCn1ccc2cccnc21)c1nc2ccccc2s1"
### Response band 2

### Prompt Next entry: "N#CC1=C(NC(=S)NC(=O)c2ccccc2)c2ccccc2CC12CCCC2"
### Response band 1

Entry source: the supplement of paper PMC10646978
